Cited source for all entries: PubChem BioAssay (NCI)

# Test system: SK-MEL-2 melanoma
# method_notes: NCI-60 one-dose screen, 48 h (100 = growth as untreated, 0 = no growth, -100 = all killed)
# test_context: 10 µM unless noted
Compounds without any hit were thinned out: in the full panel of roughly 83,000, 20% have a hit.
measured_parameter: growth (%)
The reply should contain only the number, in %.

Observe how each entry below is paired with its result.
- compound: "Nc1nnc(-c2ccc3ccccc3c2O)o1"
  measured_parameter: "growth"
  endpoint_result: 97.9
- compound: "c1ccc(-c2cn(-c3ccccc3)c(-c3ccccc3)n2)cc1"
  measured_parameter: "growth"
  endpoint_result: 81.7
- compound: "O=[N+]([O-])c1ccc(C(c2ccccc2)c2ccccc2)cc1"
  measured_parameter: "growth"
  endpoint_result: 110

So, COC(=O)c1nc(-c2ccccc2)oc1S(=O)(=O)N1CCN(c2cccc(Cl)c2)CC1 ? Its growth was 90

So, NNc1cccc(/C=C/c2ccccc2)cc1=O ? Its growth was 83.1

So, COc1ccc(-c2nc(/C=N/Nc3cc(C)nc4ccc(Br)cc34)c(C)o2)cc1 ? Its growth was 104

So, COc1cc(NC(N)=NCCC(C)(C)Oc2ccc(C(F)(F)F)cc2)ncc1C#N ? Its growth was -38.5

So, COc1cc(-c2nn(-c3cccc(NC(=O)c4ccc(N5CCOCC5)c(C(F)(F)F)c4)c3)cc2-c2ccncc2)ccc1Cl ? Its growth was -8.84

So, COc1cc(-c2nn(-c3cccc(NC(=O)Nc4ccc(Cl)c(Cl)c4)c3)cc2-c2ccncc2)ccc1Cl ? Its growth was -44.2

So, COc1cc(/C=C/C(=O)N2CCN(C(=O)/C=C/c3cc(OC)c(OC)c(OC)c3)CC2)cc(OC)c1OC ? Its growth was 110

So, CCN(CC)CCCC(C)Nc1c2ccc(Cl)cc2nc2cc(OC)c(OC)cc12 (stereo not given) ? Its growth was 48

So, C=C[C@@H]1C[C@@H]2Cc3cc(Cl)ccc3N1O2 ? Its growth was 107

So, COc1cc(-c2ncn(/C=C\C(=O)OC(C)C)n2)cc(C(F)(F)F)c1 ? Its growth was -10

So, CCOC(=O)c1cc(C(=O)c2cc(OC)c(OC)c(OC)c2)n2c1ccc1ccccc12 ? Its growth was 50.2

So, CC(C)OC(=O)N1CCOCC1 ? Its growth was 101

----------
# Test system: ACHN renal
# method_notes: NCI-60 one-dose screen, 48 h (100 = growth as untreated, 0 = no growth, -100 = all killed)
# test_context: 10 µM unless noted
About 83,000 compounds went through this panel and 20% of them were active in at least one assay; those are over-represented in the sample as a whole.
Recorded growth for the following compounds
The reply should contain only the number, in %.

- smiles_notation: "O=C(/C=C/c1c[nH]c2ccccc12)c1ccc(O)c(CN2CCN(c3ccc(F)cc3)CC2)c1"
  unit_of_measurement: "%"
  growth: 92.1
- smiles_notation: "COc1cc([N+](=O)[O-])c2ncccc2c1O"
  unit_of_measurement: "%"
  growth: 88.8
- smiles_notation: "c1ccc(Nc2nc(Nc3ccccc3)nc(Nc3ccccc3)n2)cc1"
  unit_of_measurement: "%"
  growth: 91.9

So, CC(=O)Oc1cccc(S(=O)(=O)n2cc(C(=O)C(=O)Nc3ccncc3)c3ccccc32)c1 ? Its growth was 88

So, COc1ccc(/C=C2\Oc3cc(OCCCN4CCCC4)ccc3C2=O)cc1 ? Its growth was 92.6

So, COc1ccc(C(=O)N2NC(=O)/C(=C/c3ccc(Br)cc3)N=C2c2ccccc2)cc1 ? Its growth was 87.8

So, O=C(/C=C\c1cccc([N+](=O)[O-])c1)/C=C/c1cccc([N+](=O)[O-])c1 ? Its growth was 89.6

----------
# Test system: OVCAR-3 ovarian
# method_notes: NCI-60 one-dose screen, 48 h (100 = growth as untreated, 0 = no growth, -100 = all killed)
# test_context: 10 µM unless noted
The panel holds about 83,000 compounds, 20% with a hit somewhere; the sample as a whole holds those more often.
measured_parameter: growth (%)
The reply should contain only the number, in %.

Observe how each entry below is paired with its result.
- compound: "N=C(N)c1ccc(-c2ccc(-c3ccc(-c4cccs4)s3)s2)cc1"
  growth [%]: 94.7
- compound: "NC(N)=N/N=C/c1ccc(-c2ccc(-c3cc(Cl)cc(Cl)c3)s2)cc1"
  growth [%]: -81.5
- compound: "C=C(C)[C@@H]1C[C@H](O)Cc2cc(F)ccc2N1"
  growth [%]: 111

So, COc1ccc(Cn2cc3c(c2-c2cc(OC)c(OC)c(OC)c2)CCc2cnoc2-3)cc1 ? Its growth was -5.4

So, CCCCCCN1CSC(=S)N(CCCCCC)C1 ? Its growth was 109

So, O=C(c1c[nH]c(=O)c(-c2ccccc2)c1)c1ccccc1O ? Its growth was 98.4

----------
# Tested on: MOLT-4 leukemia
# method_notes: NCI-60 one-dose screen, 48 h (100 = growth as untreated, 0 = no growth, -100 = all killed)
# test_context: 10 µM unless noted
This is part of a sample that, as a whole, favours compounds with a hit. Of some 83,000 tested, about 20% had one in any assay.
measured_parameter: growth (%)
The reply should contain only the number, in %.

So, COc1cc(/C=C/c2cc(/C=C/c3ccc(O)c(OC)c3)n(C(N)=O)n2)ccc1O ? Its growth was -33

----------
# System: UACC-257 melanoma
# method_notes: NCI-60 one-dose screen, 48 h (100 = growth as untreated, 0 = no growth, -100 = all killed)
# test_context: 10 µM unless noted
The panel holds about 83,000 compounds, 20% with a hit somewhere; the sample as a whole holds those more often.
Recorded growth for the following molecules
The reply should contain only the number, in %.

- molecule: "O=C1c2ccccc2-c2ccccc2C1(Cl)Cl"
  growth (%): -93
- molecule: "COc1cc(-c2nn(-c3cccc(NC(=O)Nc4cccc(C(F)(F)F)c4)c3)cc2-c2ccncc2)ccc1Cl"
  growth (%): -52.9
- molecule: "O=C(NNC(=O)N1c2ccccc2C=Cc2ccccc21)c1ccc2ccccc2c1"
  growth (%): 103
- molecule: "COc1ccc2[nH]c(=O)c3c4ccccc4cn3c2c1"
  growth (%): 51.3
- molecule: "NC(=N\\N=C/c1ccc(O)cc1)/C(N)=N\\N=C/c1ccc(O)cc1"
  growth (%): 85.4

Then there is this molecule:
So, c1cc2[nH]ncc2cc1-c1nc2ccc3[nH]ncc3c2c2c1CCC2 ? Its growth was 65.8

----------
# Test system: T-47D breast
# method_notes: NCI-60 one-dose screen, 48 h
# test_context: 10 µM unless noted
This is part of a sample that, as a whole, favours compounds with a hit. Of some 83,000 tested, about 20% had one in any assay. Active and inactive are the calls of the source. The calls were made as follows: active = growth percent below 10; inactive = the rest.
Write down one outcome, taken from active, inactive

- compound: "COc1ccc(-c2cc(-c3ccccc3)nc(SCCCC(=O)NO)n2)cc1OC"
  classification: "active"
- compound: "CC1CCC(C)N(C)C1 (centres undefined)"
  classification: "inactive"
- compound: "COc1cc(C2C3=C(COC3=O)Nc3cc4c(cc32)CCC4)cc2c1OCO2 (centres undefined)"
  classification: "inactive"
- compound: "O=C(/C=C\\c1cccc([N+](=O)[O-])c1)/C=C/c1cccc([N+](=O)[O-])c1"
  classification: "inactive"
- compound: "Cn1ccc(=O)c(S(N)(=O)=O)c1"
  classification: "inactive"

Enquiry: Call for entry O=C(Nc1ccncc1)C(=O)c1cn(S(=O)(=O)c2ccc(Cl)cc2)c2ccccc12 :
Return: inactive

Enquiry: Call for entry CCCCCCCCCCCC(=O)NCCC[N+](C)(C)CC(=O)[O-] :
Return: inactive

Enquiry: Call for entry COc1ccc(-c2ccc(-c3ccc(C(=N)N)cn3)s2)cc1OC :
Return: inactive

Enquiry: Call for entry Cc1ccc(Cc2c(C=O)nc(N)[nH]c2=O)c2ccccc12 :
Return: inactive

Enquiry: Call for entry COc1ccc(-c2nc(-c3nc4cc(C)c(C)cc4[nH]3)cc3c2[nH]c2ccccc23)cc1 :
Return: inactive

Enquiry: Call for entry CCOC(=O)NNC(=S)Nc1ccccc1 :
Return: inactive

Enquiry: Call for entry COc1cc([N+](=O)[O-])c2ncccc2c1O :
Return: inactive

Enquiry: Call for entry O=C(Nc1ccncc1)C(=O)c1cn(S(=O)(=O)c2ccc(Br)cc2)c2ccccc12 :
Return: inactive

Enquiry: Call for entry CC(C)c1ccc2occ(C=C3C(=O)NC(=O)NC3=O)c(=O)c2c1 :
Return: inactive

----------
# Test system: HCT-116 colon
# method_notes: NCI-60 one-dose screen, 48 h (100 = growth as untreated, 0 = no growth, -100 = all killed)
# test_context: 10 µM unless noted
Compounds without any hit were thinned out: in the full panel of roughly 83,000, 20% have a hit. Active and inactive are the calls of the source. How the source made its calls: active means growth percent below 10; inactive means the rest.
Recorded growth for the following compounds

So, Oc1ccccc1/C=N/NC(=S)NC1CC2C=CC1C2 (stereo unspecified) ? Its growth was 42.9% (inactive)

So, O=C1C(Cl)=C(Nc2ccccn2)C(=O)c2ccccc21 ? Its growth was 19.9% (inactive)

So, Cc1nc2ncccc2nc1Nc1ccc(S(=O)(=O)Nc2ccccn2)cc1 ? Its growth was 92% (inactive)
